# Procedure details: Solubility in Swiss rapeseed oil at room temperature by incremental addition of oil
# Type: physicochemical
# Experimental setup: Swiss rapeseed oil, room temperature; minimum starting ratio about 1:1, discontinued above 10:1
Result type: Solubility g oil/g material

Compound | Reported
CC/C=C\C/C=C\C/C=C\C/C=C\C/C=C\C/C=C\CCC(=O)O[C@H]1CC[C@@]2(C)C(=CC[C@H]3[C@@H]4CC[C@H]([C@H](C)/C=C/[C@@H](CC)C(C)C)[C@@]4(C)CC[C@@H]32)C1 [stigmasterol docosahexaenoate] | >1 g oil/g material
CC/C=C\C/C=C\C/C=C\C/C=C\C/C=C\CCCC(=O)OCC | >1 g oil/g material
CC[C@H](CC[C@@H](C)[C@H]1CC[C@H]2[C@@H]3CC[C@H]4C[C@@H](O)CC[C@]4(C)[C@H]3CC[C@]12C)C(C)C | >10 g oil/g material
CC[C@H](/C=C/[C@@H](C)[C@H]1CC[C@H]2[C@@H]3CC=C4C[C@@H](O)CC[C@]4(C)[C@H]3CC[C@]12C)C(C)C | >10 g oil/g material
CCC=CCC=CCC=CCC=CCC=CCCCC(=O)OC1CCC2(C)C(=CCC3C2CCC2(C)C(C(C)C=CC(CC)C(C)C)CCC32)C1 (centres unmarked) [stigmasterol eicosapentenoate, Stigmasterol eicosapenatenoate] | >1 g oil/g material

Reference source for all entries: patent US20020160990A1
